ASSAYED_SYSTEM: Sa-DHQ1 (Staphylococcus aureus)
Sequence (Q6GII7 whole entry): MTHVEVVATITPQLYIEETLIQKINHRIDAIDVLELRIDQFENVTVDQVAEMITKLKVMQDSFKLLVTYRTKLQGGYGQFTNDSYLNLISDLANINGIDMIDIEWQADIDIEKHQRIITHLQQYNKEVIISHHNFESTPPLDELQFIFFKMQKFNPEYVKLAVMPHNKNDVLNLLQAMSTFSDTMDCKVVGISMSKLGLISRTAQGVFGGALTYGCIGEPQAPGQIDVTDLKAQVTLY
MEASURED_PARAMETER: IC50 (µM)
Answers are plain numbers, in µM.

Fill in: IC50 of `N[C@@H]1C[C@@](O)(C(=O)O)C[C@@H](O)[C@@H]1O` is ___ 482

* * *

Please consider the recorded IC50 for St-DHQ1 (Salmonella typhi) in what follows.

[[record]]
smiles_code = "N[C@@H]1C[C@@](O)(C(=O)O)C[C@@H](O)[C@@H]1O"
value_measured = "528 µM"


The record that follows has no IC50 shown yet.
Fill in: IC50 of `O=C(O)[C@@]1(O)C[C@@H](O)[C@H](O)[C@@H]2O[C@@H]21` is ___ > 2000 µM
